Assay: Pharmacokinetic determination in SD rats, tail vein injection
Type: in vivo
Settings: rat, plasma; male SD rats, intravenous, 1 mg/kg
Quantity: half-life (h)

>>> reported_measurement("COc1c(OCCC(N)=O)ccc2c(=O)n(C)c(NC(=O)c3cnc(N)nc3)cc12 [8a′-3]")
6.7

(P) COc1c(OCCCN2CCOCC2)ccc2c1N=C(NC(=O)c1cnc(N)nc1)N1CCN=C21 [Copanlisib, reference compound]
(Q) COc1c(OCC(N)=O)ccc2c(=O)n(C)c(NC(=O)c3cnc(N)nc3)nc12 [8a-2]
q: Look at P and Q . Which one has the lower recorded half-life number? Label of pick, please.
a: Q
